Sourced from paper PMC5430831

Target: VEGFR1 (Homo sapiens, UniProt P17948)
Sequence (P17948 27-1338, species assumed): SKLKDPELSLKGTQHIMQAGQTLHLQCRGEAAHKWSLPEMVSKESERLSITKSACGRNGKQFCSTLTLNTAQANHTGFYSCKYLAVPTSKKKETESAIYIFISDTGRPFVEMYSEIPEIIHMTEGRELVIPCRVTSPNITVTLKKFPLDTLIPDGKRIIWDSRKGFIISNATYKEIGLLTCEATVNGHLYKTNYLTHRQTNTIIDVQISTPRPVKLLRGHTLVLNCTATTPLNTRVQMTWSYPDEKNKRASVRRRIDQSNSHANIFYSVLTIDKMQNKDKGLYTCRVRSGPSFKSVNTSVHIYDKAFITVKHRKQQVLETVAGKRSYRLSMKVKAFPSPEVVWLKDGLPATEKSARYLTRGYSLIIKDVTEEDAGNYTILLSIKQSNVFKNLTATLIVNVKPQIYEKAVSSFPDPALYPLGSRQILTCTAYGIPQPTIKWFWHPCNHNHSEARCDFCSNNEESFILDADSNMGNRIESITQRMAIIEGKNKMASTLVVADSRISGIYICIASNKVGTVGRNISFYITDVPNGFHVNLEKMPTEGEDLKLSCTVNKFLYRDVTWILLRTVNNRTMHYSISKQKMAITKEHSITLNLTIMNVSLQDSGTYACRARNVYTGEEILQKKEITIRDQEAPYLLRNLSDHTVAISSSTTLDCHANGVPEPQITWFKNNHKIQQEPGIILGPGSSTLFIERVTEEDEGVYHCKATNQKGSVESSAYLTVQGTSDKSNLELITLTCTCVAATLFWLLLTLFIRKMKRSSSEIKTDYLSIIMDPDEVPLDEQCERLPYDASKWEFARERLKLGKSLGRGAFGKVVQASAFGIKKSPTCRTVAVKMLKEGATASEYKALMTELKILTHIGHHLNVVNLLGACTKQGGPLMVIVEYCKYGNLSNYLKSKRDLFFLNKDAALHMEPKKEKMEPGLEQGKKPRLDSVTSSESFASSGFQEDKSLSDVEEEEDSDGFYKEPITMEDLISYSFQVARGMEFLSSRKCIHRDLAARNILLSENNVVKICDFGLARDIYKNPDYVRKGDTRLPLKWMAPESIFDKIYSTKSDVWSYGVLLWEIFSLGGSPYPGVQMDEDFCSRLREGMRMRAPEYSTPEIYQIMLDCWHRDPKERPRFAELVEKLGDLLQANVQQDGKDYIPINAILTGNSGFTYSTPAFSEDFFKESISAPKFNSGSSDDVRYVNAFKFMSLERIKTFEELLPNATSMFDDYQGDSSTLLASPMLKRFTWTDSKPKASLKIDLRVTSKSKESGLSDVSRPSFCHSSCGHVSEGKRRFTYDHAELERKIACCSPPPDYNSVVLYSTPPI
Experiment: Radioactive filter binding kinase assay, VEGFR1
Format: biochemical
Catalogue of IC50 values
Record the result as a number with its unit.

Use these answered entries as a reference point.
- O=C1Nc2ccccc2/C1=C1/Nc2ccccc2C1=O: 42 nM
- O=c1c(O)c(-c2cc(O)c(O)c(O)c2)oc2cc(O)cc(O)c12: 779 nM

Note: attention shifts to another entry.
Which IC50 value is on record for "Oc1c2ccccc2c2c3c(cccc13)N=N2" ?
335 nM

----------
Molecular target: UniProtKB O96017
Sequence (O96017 whole entry, species assumed): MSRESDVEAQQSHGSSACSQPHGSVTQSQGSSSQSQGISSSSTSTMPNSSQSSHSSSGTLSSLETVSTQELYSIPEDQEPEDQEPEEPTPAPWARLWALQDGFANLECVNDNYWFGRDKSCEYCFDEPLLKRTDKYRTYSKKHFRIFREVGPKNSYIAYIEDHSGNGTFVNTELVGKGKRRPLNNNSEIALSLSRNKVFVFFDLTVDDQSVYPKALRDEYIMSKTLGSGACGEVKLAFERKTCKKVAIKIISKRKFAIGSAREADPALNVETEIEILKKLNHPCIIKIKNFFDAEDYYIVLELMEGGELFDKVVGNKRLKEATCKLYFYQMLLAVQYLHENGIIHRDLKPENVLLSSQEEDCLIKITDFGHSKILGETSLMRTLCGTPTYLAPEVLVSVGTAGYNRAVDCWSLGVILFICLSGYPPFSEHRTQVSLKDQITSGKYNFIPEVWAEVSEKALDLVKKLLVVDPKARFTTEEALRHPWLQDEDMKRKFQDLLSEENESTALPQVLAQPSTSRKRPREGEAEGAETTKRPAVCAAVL
Experiment: Radioactive filter binding kinase assay, CHK2
Format: biochemical
Conditions: read-out: IC50 CHK2; mean±SD (n=3)
measured attribute: pIC50
pIC50 here: minus log base 10 of the concentration, concentration in moles per litre.

* Cn1cc(C2=C(c3cn(CCCSC(=N)N)c4ccccc34)C(=O)NC2=O)c2ccccc21 [Ro318220] | 5.97

Note: attention shifts to another entry.
What pIC50 appears in the records for this compound with UniProtKB O96017? COC(=O)[C@@]1(O)C[C@H]2O[C@]1(C)n1c3ccccc3c3c4c(c5c6ccccc6n2c5c31)C(=O)NC4 [K252a]
7.64

----------
Biological target: VEGFR1 (Homo sapiens)
Assay: Radioactive filter binding kinase assay, VEGFR1
Format: biochemical
Conditions: read-out: IC50 VEGFR1; mean±SD (n=3)
Catalogue of pIC50 values
pIC50 here: minus log base 10 of the concentration, concentration in moles per litre.

• COC(=O)[C@@]1(O)C[C@H]2O[C@]1(C)n1c3ccccc3c3c4c(c5c6ccccc6n2c5c31)C(=O)NC4 [K252a] = 7.89

Note: attention shifts to another entry.
What pIC50 appears in the records for this compound with VEGFR1 (Homo sapiens)? "Cn1cc(C2=C(c3cn(CCCSC(=N)N)c4ccccc34)C(=O)NC2=O)c2ccccc21"
6.92
